Entries and their measured Ki follow.
ASSAYED_SYSTEM: MUN-1 beta-lactamase
Construct: gene blaMUN-1; full gene cloned in pTOPO-kanR, expressed in E. coli TOP10, purified by ion exchange; no tag mentioned
METHOD_SUMMARY: kinetic measurement, purified beta-lactamase
Format: biochemical, Escherichia coli
TEST_CONDITIONS: details in supplement
RECORDED_ENDPOINT: Ki (nM)

C[C@@H](O)[C@H]1C(=O)N2C(C(=O)O)=C(S[C@@H]3CN[C@H](C(=O)N(C)C)C3)[C@H](C)[C@H]12 [Meropenem] ... 19
CC1(C)S[C@@H]2[C@H](NC(=O)[C@H](C(=O)O)c3ccsc3)C(=O)N2[C@H]1C(=O)O [Ticarcillin] ... 3.6
C[C@@H](O)[C@H]1C(=O)N2C(C(=O)O)=C(S[C@@H]3CN[C@H](C(=O)Nc4cccc(C(=O)O)c4)C3)[C@H](C)[C@H]12 [Ertapenem] ... 17
C[C@@H](O)[C@H]1C(=O)N2C(C(=O)O)=C(SCCN=CN)C[C@H]12 [Imipenem] ... 1.3
